IWQ Use Nav1.5 (µM) (IC50, IonWorks Quattro population patch clamp) values by entry
- MEASURED_ON: human voltage-gated sodium channel Nav1.5 (human) (UniProt Q14524)
- Sequence (Q14524 whole entry): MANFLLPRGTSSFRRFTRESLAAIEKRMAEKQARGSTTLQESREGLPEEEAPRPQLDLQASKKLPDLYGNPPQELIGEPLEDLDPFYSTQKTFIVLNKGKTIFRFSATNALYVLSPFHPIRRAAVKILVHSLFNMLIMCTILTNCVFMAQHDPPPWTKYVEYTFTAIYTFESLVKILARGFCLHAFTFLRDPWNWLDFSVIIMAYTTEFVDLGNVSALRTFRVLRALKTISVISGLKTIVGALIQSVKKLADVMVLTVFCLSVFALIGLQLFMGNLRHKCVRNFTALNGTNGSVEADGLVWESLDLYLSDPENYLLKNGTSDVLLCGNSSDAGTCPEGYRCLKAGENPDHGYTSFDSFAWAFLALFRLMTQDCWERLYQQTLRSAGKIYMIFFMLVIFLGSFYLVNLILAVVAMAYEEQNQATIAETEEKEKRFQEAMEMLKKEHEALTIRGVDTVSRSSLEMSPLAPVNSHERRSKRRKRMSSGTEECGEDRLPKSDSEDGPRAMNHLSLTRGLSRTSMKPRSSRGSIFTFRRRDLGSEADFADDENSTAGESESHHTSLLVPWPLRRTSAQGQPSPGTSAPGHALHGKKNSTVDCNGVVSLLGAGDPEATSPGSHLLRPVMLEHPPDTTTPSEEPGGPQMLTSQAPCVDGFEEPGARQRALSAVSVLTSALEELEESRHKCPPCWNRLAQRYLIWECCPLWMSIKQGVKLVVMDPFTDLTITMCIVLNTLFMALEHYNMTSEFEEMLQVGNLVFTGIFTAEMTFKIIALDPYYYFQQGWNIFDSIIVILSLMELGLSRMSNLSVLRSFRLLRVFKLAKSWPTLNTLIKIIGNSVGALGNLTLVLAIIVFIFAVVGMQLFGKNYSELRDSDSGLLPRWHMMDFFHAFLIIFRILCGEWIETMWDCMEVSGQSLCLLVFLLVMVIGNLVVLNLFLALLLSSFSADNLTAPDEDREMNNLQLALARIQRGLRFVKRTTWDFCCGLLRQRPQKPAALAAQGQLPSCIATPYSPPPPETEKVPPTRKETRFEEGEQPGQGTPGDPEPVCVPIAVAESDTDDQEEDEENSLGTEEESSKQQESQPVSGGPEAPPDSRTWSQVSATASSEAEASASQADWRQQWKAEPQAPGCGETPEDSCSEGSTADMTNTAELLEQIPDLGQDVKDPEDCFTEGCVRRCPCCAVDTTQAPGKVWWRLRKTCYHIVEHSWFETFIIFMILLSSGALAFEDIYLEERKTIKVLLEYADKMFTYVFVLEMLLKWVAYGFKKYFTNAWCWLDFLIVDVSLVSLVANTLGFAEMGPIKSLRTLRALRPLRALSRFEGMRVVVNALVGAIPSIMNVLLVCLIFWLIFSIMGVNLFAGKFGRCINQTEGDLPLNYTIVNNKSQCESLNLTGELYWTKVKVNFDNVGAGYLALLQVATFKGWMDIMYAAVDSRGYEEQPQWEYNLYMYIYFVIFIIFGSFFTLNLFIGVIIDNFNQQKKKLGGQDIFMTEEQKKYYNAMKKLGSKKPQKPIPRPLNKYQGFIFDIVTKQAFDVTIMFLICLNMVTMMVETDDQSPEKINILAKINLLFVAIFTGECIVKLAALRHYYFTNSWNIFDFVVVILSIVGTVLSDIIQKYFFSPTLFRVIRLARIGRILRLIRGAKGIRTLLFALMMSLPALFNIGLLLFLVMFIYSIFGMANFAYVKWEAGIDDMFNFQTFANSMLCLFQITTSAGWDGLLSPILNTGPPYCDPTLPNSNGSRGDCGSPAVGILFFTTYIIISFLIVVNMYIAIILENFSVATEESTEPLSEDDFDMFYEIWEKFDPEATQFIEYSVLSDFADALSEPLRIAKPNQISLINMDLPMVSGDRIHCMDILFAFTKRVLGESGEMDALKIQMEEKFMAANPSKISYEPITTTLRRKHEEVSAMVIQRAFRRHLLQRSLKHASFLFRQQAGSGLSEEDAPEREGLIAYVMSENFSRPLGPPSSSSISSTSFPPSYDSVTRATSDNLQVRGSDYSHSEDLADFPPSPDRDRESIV
- ASSAY_REMARKS: cell-based or functional assay
Non-standard residues stand in square brackets, D forms with d. No end group written: not given here. Nva = CCC[C@H](N)C(=O)O; Abu = CC[C@H](N)C(=O)O
ENDPOINT_NAME: IWQ Use Nav1.5 (µM) (IC50, IonWorks Quattro population patch clamp)

[[record]]
binder = "D[Abu]LG[Nva]LRKCIPDNDKC[Abu]RPNLVCSRTHEWCKYVF (ends and bridges not checked) [[2-Abu2,17;Nva5;Leu6;Glu28]GpTx-1(1-34)]"
measurement = "> 50 µM"

[[record]]
binder = "D[Abu]LGALRKCIPDNDKC[Abu]RPNLVCSRTHEWCKYVF (ends and bridges not checked) [[2-Abu2,17;Ala5;Leu6;Glu28]GpTx-1(1-34)]"
measurement = "> 50 µM"

[[record]]
binder = "D[Abu]LG[Abu]LRKCIPDNDKC[Abu]RPNLVCSRTHEWCKYVF (ends and bridges not checked) [[2-Abu2,5,17;Leu6;Glu28]GpTx-1(1-34)]"
measurement = "> 50 µM"

[[record]]
binder = "D[Abu]LGVLRKCIPDNDKC[Abu]RPNLVCSRTHEWCKYVF (ends and bridges not checked) [[2-Abu2,17;Val5;Leu6;Glu28]GpTx-1(1-34)]"
measurement = "33 µM"

